ASSAY SYSTEM: T1, IR485 construct of human insulin receptor (human, UniProt P06213 28-512)
T1 construct: The tag was not removed for ITC; Expressed in Lec8 mutant CHO cells; also called insulin mini-receptor IR485; first three domains of IR (L1-CR-L2)
T1 chain: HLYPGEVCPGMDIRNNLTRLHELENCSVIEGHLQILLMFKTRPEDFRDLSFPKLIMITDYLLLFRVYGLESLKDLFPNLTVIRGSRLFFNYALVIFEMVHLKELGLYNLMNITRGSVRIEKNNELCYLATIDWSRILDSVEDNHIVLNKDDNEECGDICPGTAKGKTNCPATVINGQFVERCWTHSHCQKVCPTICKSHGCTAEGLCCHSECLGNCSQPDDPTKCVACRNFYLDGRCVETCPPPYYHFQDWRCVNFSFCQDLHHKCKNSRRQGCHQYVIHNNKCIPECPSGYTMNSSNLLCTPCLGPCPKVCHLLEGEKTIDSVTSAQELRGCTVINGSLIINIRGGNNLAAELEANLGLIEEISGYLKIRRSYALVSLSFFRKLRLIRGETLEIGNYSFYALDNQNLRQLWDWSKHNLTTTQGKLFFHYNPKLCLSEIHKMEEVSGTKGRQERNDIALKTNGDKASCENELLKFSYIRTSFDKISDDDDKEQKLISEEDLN
RUN DESCRIPTION: ITC, about 25 °C, peptide titrated into IR485
Ends that are not written are not given here. * marks the point of attachment. Biotin = O=C1N[C@H]2[C@H](CS[C@H]2CCCCC(=O)*)N1
REPORTED ENDPOINT: ΔH°

Biotin-ESSFRKTFEDYLHNVVFVPRPS (Genscript, >75% purity; also called wt; native peptide) [N-terminally biotinylated IR αCT peptide 698-719, wild type]
-11.5 kcal/mol
Biotin-ESSFWKTFEDYLHNVVFVPRPS [N-terminally biotinylated IR αCT peptide 698-719, R702W]
-8.37 kcal/mol
Biotin-ESSFRKWFEDYLHNVVFVPRPS [N-terminally biotinylated IR αCT peptide 698-719, T704W]
-6.21 kcal/mol
Biotin-ESSFYKTFEDYLHNVVFVPRPS [N-terminally biotinylated IR αCT peptide 698-719, R702Y]
-12 kcal/mol
Biotin-ESSFYKWFEDYLHNVVFVPRPS [N-terminally biotinylated IR αCT peptide 698-719, R702Y/T704W]
-11.7 kcal/mol
Biotin-ESSFRKYFEDYLHNVVFVPRPS [N-terminally biotinylated IR αCT peptide 698-719, T704Y]
-11 kcal/mol
